Values from ChEMBL document CHEMBL1133918

Catalogue of compounds with associated GI50
# Test system: SK-MEL-2
# test name: Tested for cytostatic activity against Melanoma SK-MEL2 cell line of NCI 60 tumor cell line panel
# Format: functional
# experimental parameters: Homo sapiens
observed property: GI50

[[record]]
mol_smiles = "O=C1c2scc(-c3ccc(F)cc3)c2-n2cccc21"
target_system = "SK-MEL-2"
value_reported = "31.6 µM"

[[record]]
mol_smiles = "O=C1c2scc(-c3ccccc3)c2-n2cccc21"
target_system = "SK-MEL-2"
value_reported = "12.6 µM"

[[record]]
mol_smiles = "COc1ccc(-c2csc3c2-n2cccc2C3=O)cc1"
target_system = "SK-MEL-2"
value_reported = "0.398 µM"

[[record]]
mol_smiles = "O=C1c2scc(-c3ccc(Cl)cc3)c2-n2cccc21"
target_system = "SK-MEL-2"
value_reported = "> 100 µM"

